Assay read-out Ki on Carbonic anhydrase 12 (Homo sapiens); records merged from the literature.
parameter.measured: Ki (nM)

Example entries and their recorded answers appear below.
NS(=O)(=O)c1cccc(NC(=O)c2ccc3cc[nH]c3c2)c1    40.5
NS(=O)(=O)c1ccc(N2CC[C@@H](NC(=S)Nc3ccccc3)C2)nc1    59.3
COc1cc(C(=O)OCCCCCCN(C)CCCOC(=O)c2ccc(S(N)(=O)=O)cc2)cc(OC)c1OC    57.6

(A) CN(CCCCCOC(=O)COc1ccc2ccc(=O)oc2c1)CCCOC(=O)c1c2ccccc2cc2ccccc12
(B) NS(=O)(=O)CCCn1cc(CNC(=O)Nc2ccc(C(F)(F)F)cc2)nn1
(C) NS(=O)(=O)c1ccc2c(c1)CCN2C(=O)C1CCCC1
(D) CC1(C)N=C(N)N=C(Nc2ccc(S(N)(=O)=O)cc2)N1
(E) NS(=O)(=O)c1ccc(NC(=O)c2ccc3[nH]ccc3c2)cc1
Please list these in order of increasing Ki. Thank you! Form field (ranking): labels in requested order. A, C, E, B, D
(A: 45.7 nM, C: 88.1 nM, E: 257 nM, B: 2630 nM, D: 4650 nM)

* * *

A compilation of published pKi results with UniProt O43570.
pKi: −log10 of the molar value.
parameter.measured: pKi

// worked examples, pKi included
COc1cc(C(=O)c2cn(-c3ccccc3S(N)(=O)=O)cc2-c2ccccc2)cc(OC)c1OC    6.00
NS(=O)(=O)CCCn1cc(COc2ccc(F)cc2)nn1    5.61
NS(=O)(=O)c1ccc(-n2c(-c3ccccc3Br)nc(-c3ccccc3)c2-c2ccccc2)cc1    5.34

(I) COc1ccccc1-c1nc(-c2ccccc2)c(-c2ccccc2)n1-c1ccc(S(N)(=O)=O)cc1
(II) C[C@@H](NC(=O)OC(C)(C)C)C(=O)NCc1ccc(S(N)(=O)=O)cc1
(III) NS(=O)(=O)c1ccc(CCNC(=O)NCc2cn(CCCS(=O)(=O)[O-])nn2)cc1.[Na+]
(IV) NS(=O)(=O)c1ccc2c(c1)CCN2C(=O)c1cccs1
Please give the order of these molecules when sorted by pKi, largest value leading. Output the labels ranked as instructed. III, II, IV, I
(III: 8.06, II: 7.69, IV: 6.83, I: 5.43)

* * *

This section presents pKi values reported for Carbonic anhydrase 12 (Homo sapiens) in the literature.
pKi: −log10 of the molar value.
parameter.measured: pKi

NS(=O)(=O)c1ccc(N2CC[C@H](NC(=S)Nc3ccc(F)cc3)C2)nc1    7.45
COc1cc(C(=O)c2ccn(-c3ccccc3S(N)(=O)=O)c2)cc(OC)c1OC    6.37
NS(=O)(=O)CCCCn1cc(COc2ccc(F)cc2)nn1    5.68
NS(=O)(=O)c1ccc(O)c(NC(=O)c2ccc3cc[nH]c3c2)c1    7.13
CC(C)(C)OC(=O)N[C@H](Cc1ccccc1)C(=O)NCc1ccc(S(N)(=O)=O)cc1    8.16

(1) COc1cc(C(=O)c2cn(-c3cccc(S(N)(=O)=O)c3)cc2-c2ccccc2)cc(OC)c1OC
(2) NS(=O)(=O)c1ccc(-n2c(-c3ccc(Cl)cc3)nc(-c3ccccc3)c2-c2ccccc2)cc1
(3) NS(=O)(=O)c1ccc(CCNC(=O)c2ccc3[nH]ccc3c2)cc1
Arrange these molecules by their pKi, starting with the largest number. Provide your answer as the labels ordered per the instruction. 1, 3, 2
(1: 7.54, 3: 6.63, 2: 5.43)

* * *

Compiled record: Ki values for Carbonic anhydrase 12 (Homo sapiens, UniProt O43570) across several sources.
parameter.measured: Ki (nM)

For orientation, consider the following solved cases.
C[C@@H](NC(=O)OC(C)(C)C)C(=O)Nc1ccc2c(c1)NC(=O)CC2 (stereo in doubt)    2000
COc1ccc2nccc(Nc3ccccc3S(N)(=O)=O)c2c1    42.1
NS(=O)(=O)c1ccc(NC(=O)c2cc3sccc3n2Cc2ccccc2)cc1    7.8
NS(=O)(=O)c1ccc2c(c1)CCN2C(=O)c1cccc(Cl)c1    112
COc1cc(/C=C/C(=O)OCCCCCN(C)CCCOC(=O)COc2ccc3ccc(=O)oc3c2)cc(OC)c1OC    48.8

(A) COc1ccc(/C=C/C(=O)c2ccc(-c3cc4ccccc4oc3=O)nc2C)cc1
(B) CC(C)C(=O)Nc1cccc(C(=O)NC(=S)Nc2ccc(C(=O)O)cc2)c1
Which entry has a larger number for Ki, A or B ? Output the label that corresponds to your choice. A
(A: 2800 nM, B: 142 nM)

* * *

Field Ki: reported value for Carbonic anhydrase 12 (Homo sapiens, UniProt O43570); entries drawn from several documents.
parameter.measured: Ki (nM)

COc1cc(C(=O)OCCCN(C)CCCCCOC(=O)COc2ccc3ccc(=O)oc3c2)cc(OC)c1OC    9.2
CCOC(=O)c1ccc(NC(=O)NCc2cn(CCCS(N)(=O)=O)nn2)cc1    4900

(I) NS(=O)(=O)c1ccc(CCNC(=O)c2cc(-c3cc(Cl)ccc3O)n[nH]2)cc1
(II) CN1C(=O)C(=C2C(=O)Nc3ccc(C(F)(F)F)cc32)SC1=Nc1ccc(S(N)(=O)=O)cc1
Between I and II , whose recorded Ki is greater? Field: selected label. Fill in the label of the entry you choose. II

* * *

The following compounds were reported with pKi values on Carbonic anhydrase 12 (Homo sapiens) in different studies.
pKi: −log10 of the molar value.
parameter.measured: pKi

Known pKi results, listed for orientation:
COc1ccc(OCc2cn(CCCCS(N)(=O)=O)nn2)cc1    5.51
Cc1ccc(C2CC(c3ccc(O)cc3)=NN2c2ccc(S(N)(=O)=O)cc2)cc1 (centres unmarked)    7.02
Cc1ccc(C(=O)Nc2ccc(C(=O)NC(=S)Nc3ccc(C(=O)O)cc3)cc2)cc1    7.96
NS(=O)(=O)c1ccccc1NC(=O)c1ccc2[nH]ccc2c1    7.05

(a) CSc1ccc(C(=O)N2CCc3cc(S(N)(=O)=O)ccc32)cc1
(b) COc1cc(/C=C/C(=O)OCCCCCCCN(C)CCCCCCCOC(=O)COc2ccc3ccc(=O)oc3c2)cc(OC)c1OC
(c) CC1(C)N=C(N)N=C(N)N1c1ccc(S(N)(=O)=O)cc1
Form: Sort by [pKi] Order [ ascending ] Answer by naming the labels in the order asked. c, a, b
(c: 5.45, a: 7.04, b: 8.15)

* * *

// molecules with pKi on Carbonic anhydrase 12 (Homo sapiens, UniProt O43570), multi-source literature
pKi: −log10 of the molar value.
parameter.measured: pKi

A selection of reference data follows.
CCOC(=O)c1ccc(NC(=O)NCc2cn(CCCCS(N)(=O)=O)nn2)cc1    5.55
C[C@@H](NC(=O)OC(C)(C)C)C(=O)NCCc1ccc(S(N)(=O)=O)cc1    7.34
CC(=O)Nc1cc(S(N)(=O)=O)ccc1OCc1cn(CCCS(=O)(=O)[O-])nn1.[Na+]    7.73

(A) NS(=O)(=O)c1ccc(O)c(NC(=O)CCc2c[nH]c3ccccc23)c1
(B) Oc1ccc(/C=C/c2ccc(Cl)cc2Cl)cc1Cl
# argmax over pKi for candidates A and B Mark your selection by writing its label. A

* * *

Study the reported pKi values for Carbonic anhydrase 12 (Homo sapiens, UniProt O43570) given below; they originate from different publications.
pKi: −log10 of the molar value.
parameter.measured: pKi

(I) NS(=O)(=O)c1ccc(O)c(NC(=O)c2ccc3[nH]ccc3c2)c1
(II) Cc1cc(C)c(O)c(-c2cc(C(=O)NCCc3ccc(S(N)(=O)=O)cc3)[nH]n2)c1
Compare the recorded pKi of I and II ; state which is larger. Your answer should be the label of the entry you select. I

(A) NS(=O)(=O)c1ccc(NC(=O)c2cc3sccc3n2Cc2ccccc2F)cc1
(B) NC1=NC2(CCCCC2)NC(Nc2ccc(S(N)(=O)=O)cc2)=N1
(C) CC(C)[C@@H](NC(=O)OC(C)(C)C)C(=O)NCc1ccc(S(N)(=O)=O)cc1
(D) NS(=O)(=O)c1ccc(CCNC(=O)[C@H](Cc2ccccc2)NC(=O)OCC2c3ccccc3-c3ccccc32)cc1
(E) NS(=O)(=O)CCCn1cc(CNC(=O)Nc2ccc(F)cc2)nn1
Number of compounds to sort: 5. Sort criterion: pKi, ascending. Form entry: ranked labels (order as requested). B, E, C, D, A
(B: 5.27, E: 5.82, C: 7.05, D: 7.41, A: 8.09)

(a) NS(=O)(=O)c1ccc(N2N=C(c3ccc(O)cc3)CC2c2ccc(F)cc2)cc1 (centres unmarked)
(b) CC(C)[C@@H](NC(=O)OCc1ccccc1)C(=O)NCc1ccc(S(N)(=O)=O)cc1
Thinking about recorded pKi values, which is higher, a or b ? Your answer should be the label of the entry you select. a
(a: 8.07, b: 7.17)

(a) COc1cc(/C=C/C(=O)OCCCN(C)CCCOC(=O)COc2ccc3ccc(=O)oc3c2)cc(OC)c1OC
(b) NS(=O)(=O)c1ccc(NC(=O)NCc2cn(CCCS(=O)(=O)[O-])nn2)cc1.[Na+]
Out of a and b , name the one with the higher pKi. Write the label of whichever entry you select. a
